target-or-system: Cytochrome P450 2C9 (Homo sapiens, UniProt P11712)
Sequence (P11712 whole entry): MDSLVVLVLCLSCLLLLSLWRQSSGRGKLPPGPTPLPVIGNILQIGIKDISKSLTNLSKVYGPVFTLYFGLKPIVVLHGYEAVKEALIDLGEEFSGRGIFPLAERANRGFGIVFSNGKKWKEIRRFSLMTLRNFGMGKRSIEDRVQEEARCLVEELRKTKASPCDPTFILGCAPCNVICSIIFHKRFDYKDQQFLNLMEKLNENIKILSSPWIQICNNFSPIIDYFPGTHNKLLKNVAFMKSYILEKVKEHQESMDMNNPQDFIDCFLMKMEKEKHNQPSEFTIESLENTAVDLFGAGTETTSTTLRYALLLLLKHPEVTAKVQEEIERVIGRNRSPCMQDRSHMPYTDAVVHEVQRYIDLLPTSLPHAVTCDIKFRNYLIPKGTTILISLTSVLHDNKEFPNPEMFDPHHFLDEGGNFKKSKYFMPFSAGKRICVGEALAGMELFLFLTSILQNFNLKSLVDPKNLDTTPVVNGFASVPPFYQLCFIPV
procedure-details: Inhibition of CYP2C9 in human hepatocytes in presence of 10% fetal bovine serum
Type: ADME, cell-based, Hepatocyte
Hi there, I'd appreciate the recorded IC50 for every entry that follows.
Numbers only, in µM.

Below are worked cases with known answers.
Qu. Which measured IC50 value corresponds to CC(NC(=O)c1ccc(C(=O)C(F)(F)F)s1)c1cccc2ccccc12 (centres undefined) ?
Ans. 17

Qu. Which measured IC50 value corresponds to CC(NC(=O)c1ccc(C(=O)C(F)(F)F)s1)c1ccncc1 (centres undefined) ?
Ans. 3

Qu. Which measured IC50 value corresponds to COc1cccc(N2CCN(C(=O)c3ccc(C(=O)C(F)(F)F)s3)CC2)c1 ?
Ans. 8

***
Qu. Which measured IC50 value corresponds to O=C(c1ccc(C(=O)C(F)(F)F)s1)N1CCC(c2nnc(-c3ccccc3)o2)CC1 ?
Ans. 5
